SYSTEM_TESTED: Prostaglandin G/H synthase 2 (Homo sapiens) (UniProt P35354)
Sequence (P35354 whole entry, looked up): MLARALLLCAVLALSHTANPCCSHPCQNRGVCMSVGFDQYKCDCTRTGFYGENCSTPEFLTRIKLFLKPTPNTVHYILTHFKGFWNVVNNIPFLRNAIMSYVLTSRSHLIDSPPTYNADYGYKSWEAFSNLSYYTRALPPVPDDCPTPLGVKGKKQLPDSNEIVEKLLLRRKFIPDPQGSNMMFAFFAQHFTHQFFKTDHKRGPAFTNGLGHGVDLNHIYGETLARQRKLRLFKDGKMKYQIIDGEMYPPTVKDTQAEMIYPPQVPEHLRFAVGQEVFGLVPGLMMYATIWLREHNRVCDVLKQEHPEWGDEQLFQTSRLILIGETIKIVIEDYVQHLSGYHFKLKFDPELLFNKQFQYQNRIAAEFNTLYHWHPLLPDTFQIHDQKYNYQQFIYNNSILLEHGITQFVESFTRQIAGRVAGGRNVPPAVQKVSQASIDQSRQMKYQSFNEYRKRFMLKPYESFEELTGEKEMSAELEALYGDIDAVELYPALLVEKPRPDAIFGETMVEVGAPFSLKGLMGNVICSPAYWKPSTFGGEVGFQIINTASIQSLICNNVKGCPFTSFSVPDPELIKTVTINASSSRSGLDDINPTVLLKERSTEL
PROTOCOL_NOTES: Inhibition of recombinant human COX2 expressed in baculovirus infected Sf21 cells using arachidonic acid as substrate preincubated for 5 mins followed by substrate addition and measured after 5 mins by UV-visible spectrophotometric method
Entries whose IC50 is below 20 µM take yes; entries at or above 20 µM take no.

Check out these entries, answers already filled in.
1. O=C1CCOCC1C1CC(=O)N(c2ccccc2)C1=O (centres undefined) ... no
2. NS(=O)(=O)c1ccc(N2C(=O)CC(CC(=O)c3ccccc3)C2=O)cc1 (centres undefined) ... yes
3. O=C1CCCCCC1C1CC(=O)N(c2ccccc2)C1=O (centres undefined) ... no
4. CC1CCC(=O)C(C2CC(=O)N(c3ccccc3)C2=O)C1 (centres undefined) ... no
5. O=C1CCCC1C1CC(=O)N(c2ccccc2)C1=O (centres undefined) ... no
6. O=C1CCCCC1C1CC(=O)N(c2ccc(Br)cc2)C1=O (centres undefined) ... no
7. COc1ccc(C(=O)CC2CC(=O)N(c3ccc(S(N)(=O)=O)cc3)C2=O)cc1 (centres undefined) ... yes
8. CC1CCC(=O)C(C2CC(=O)N(Cc3ccccc3)C2=O)C1 (centres undefined) ... no

Task item: Decide: IC50 of O=C1CCCCC1C1CC(=O)N(c2ccccc2)C1=O (centres undefined) strictly below 20 µM?
Reply: no

Task item: For NS(=O)(=O)c1ccc(N2C(=O)CC(CC(=O)c3ccccn3)C2=O)cc1 (centres undefined) then?
Reply: yes

Task item: For NS(=O)(=O)c1ccc(N2C(=O)CC(CC(=O)c3ccc(Cl)cc3)C2=O)cc1 (centres undefined) then?
Reply: yes

Task item: For NS(=O)(=O)c1ccc(N2C(=O)CC(C3CCCCCC3=O)C2=O)cc1 (centres undefined) then?
Reply: no

Task item: For Cc1ccc(C(=O)CC2CC(=O)N(c3ccc(S(N)(=O)=O)cc3)C2=O)cc1 (centres undefined) then?
Reply: yes
